The origin of these recorded values is ChEMBL document CHEMBL5303573.

- experiment_description: The drug is tested on Bacteroides ovatus strain: ATCC8483 for biotransformation. The drug concentrations were measured before and after a 12-h incubation by liquid-chromatography-coupled mass spectrometry (LC–MS)
- condition_set: 2 µM
measured_property: Bacterial Biotransformation

- COC(=O)C(c1ccccc1)C1CCCCN1 (stereo not drawn) [METHYLPHENIDATE]: Compound NOT metabolized
- Cc1cn([C@H]2C[C@H](N=[N+]=[N-])[C@@H](CO)O2)c(=O)[nH]c1=O [ZIDOVUDINE]: Compound NOT metabolized
- Clc1ccc(Cn2c(CN3CCCC3)nc3ccccc32)cc1 [CLEMIZOLE]: Compound NOT metabolized
- Br.COc1ccc2c(c1)[C@]13CCCC[C@@H]1[C@H](C2)N(C)CC3.O [DEXTROMETHORPHAN HYDROBROMIDE]: Compound NOT metabolized
- COc1cc2nc(N3CCN(C(=O)C4CCCO4)CC3)nc(N)c2cc1OC (stereo not drawn) [TERAZOSIN]: Compound NOT metabolized
- N#Cc1ccc2[nH]cc(CCCCN3CCN(c4ccc5oc(C(N)=O)cc5c4)CC3)c2c1 [VILAZODONE]: Compound metabolized
- O=C([O-])C[C@H](O)C[C@H](O)/C=C/c1c(C2CC2)nc2ccccc2c1-c1ccc(F)cc1.O=C([O-])C[C@H](O)C[C@H](O)/C=C/c1c(C2CC2)nc2ccccc2c1-c1ccc(F)cc1.[Ca+2] [PITAVASTATIN CALCIUM]: Compound NOT metabolized
- COc1ccc(CN2CCNCC2)c(OC)c1OC.Cl.Cl [TRIMETAZIDINE DIHYDROCHLORIDE]: Compound metabolized

---

- experiment_description: The drug is tested on Dorea formicigenerans strain: ATCC27755 for biotransformation. The drug concentrations were measured before and after a 12-h incubation by liquid-chromatography-coupled mass spectrometry (LC–MS)
- condition_set: 2 µM
measured_property: Bacterial Biotransformation

* CN(C)CCOC(C)(c1ccccc1)c1ccccn1.O=C(O)CCC(=O)O (stereo not given) [DOXYLAMINE SUCCINATE] | Compound NOT metabolized
* CSc1ccc2c(c1)C(N1CCN(C)CC1)Cc1ccccc1S2.O=C(O)/C=C\C(=O)O (stereo not given) | Compound NOT metabolized
* O=c1[nH]c2ccccc2n1CCCN1CCC(n2c(=O)[nH]c3cc(Cl)ccc32)CC1 | Compound NOT metabolized
* O=C(CCCN1CCC2(CC1)C(=O)NCN2c1ccccc1)c1ccc(F)cc1 | Compound NOT metabolized

---

- condition_set: enterocloster bolteae, 12 h, 2 µM
- Description: The drug is tested on Clostridium bolteae strain: ATCCBAA-613 for biotransformation. The drug concentrations were measured before and after a 12-h incubation by liquid-chromatography-coupled mass spectrometry (LC–MS)
measured_property: Bacterial Biotransformation

* CC12CC3CC(C)(C1)CC(N)(C3)C2 [MEMANTINE] | Compound NOT metabolized
* C[C@H]1O[C@@H](O[C@H]2[C@@H](O)C[C@H](O[C@H]3[C@@H](O)C[C@H](O[C@H]4CC[C@@]5(C)[C@H](CC[C@@H]6[C@@H]5C[C@@H](O)[C@]5(C)[C@@H](C7=CC(=O)OC7)CC[C@]65O)C4)O[C@@H]3C)O[C@@H]2C)C[C@H](O)[C@@H]1O | Compound NOT metabolized

---

- experiment_description: The drug is tested on Anaerococcus hydrogenalis strain: DSM7454 for biotransformation. The drug concentrations were measured before and after a 12-h incubation by liquid-chromatography-coupled mass spectrometry (LC–MS)
- condition_set: 2 µM
measured_property: Bacterial Biotransformation

* COc1ccc2[nH]c([S+]([O-])Cc3ncc(C)c(OC)c3C)nc2n1 (configuration not stated) | Compound metabolized
* CC(=O)Oc1ccc(C(c2ccc(OC(C)=O)cc2)c2ccccn2)cc1 | Compound metabolized
* CCCCC(=O)N(Cc1ccc(-c2ccccc2-c2nnn[nH]2)cc1)[C@H](C(=O)O)C(C)C | Compound NOT metabolized
* CN1CCC(=C2c3ccccc3CC(=O)c3sccc32)CC1.O=C(O)/C=C/C(=O)O [KETOTIFEN FUMARATE] | Compound NOT metabolized
* CN1C[C@H](C(=O)N[C@]2(C)O[C@@]3(O)[C@@H]4CCCN4C(=O)[C@H](Cc4ccccc4)N3C2=O)C=C2c3cccc4[nH]cc(c34)C[C@H]21.CN1C[C@H](C(=O)N[C@]2(C)O[C@@]3(O)[C@@H]4CCCN4C(=O)[C@H](Cc4ccccc4)N3C2=O)C=C2c3cccc4[nH]cc(c34)C[C@H]21.O=C(O)C(O)C(O)C(=O)O [ERGOTAMINE TARTRATE] | Compound metabolized
* CC(=O)O[C@]1(C(C)=O)CC[C@H]2[C@@H]3C=C(C)C4=CC(=O)CC[C@]4(C)[C@H]3CC[C@@]21C [MEGESTROL ACETATE] | Compound NOT metabolized
* CCOC(=O)[C@H](CCc1ccccc1)N[C@@H](C)C(=O)N1[C@H](C(=O)O)C[C@@H]2CCC[C@@H]21 | Compound NOT metabolized

---

- experiment_description: The drug is tested on Bacteroides uniformis strain: ATCC8492 for biotransformation. The drug concentrations were measured before and after a 12-h incubation by liquid-chromatography-coupled mass spectrometry (LC–MS)
- condition_set: 2 µM
measured_property: Bacterial Biotransformation

- CC(C)(C)NC[C@H](O)COc1nsnc1N1CCOCC1.O=C(O)/C=C\C(=O)O [TIMOLOL MALEATE]: Compound NOT metabolized
- CC(C)[C@H]1CC[C@H](C(=O)N[C@H](Cc2ccccc2)C(=O)O)CC1 [NATEGLINIDE]: Compound metabolized
- C[C@@H](c1ncncc1F)[C@](O)(Cn1cncn1)c1ccc(F)cc1F: Compound metabolized
- CC[C@@]1(O)C(=O)OCc2c1cc1n(c2=O)Cc2cc3c(CN(C)C)c(O)ccc3nc2-1: Compound NOT metabolized
- C=C[C@H]1CN2CC[C@H]1C[C@H]2[C@H](O)c1ccnc2ccc(OC)cc12.C=C[C@H]1CN2CC[C@H]1C[C@H]2[C@H](O)c1ccnc2ccc(OC)cc12.O.O.O=S(=O)(O)O [QUININE SULFATE]: Compound NOT metabolized
- CN1[C@@H]2CC[C@H]1C[C@@H](OC(=O)c1c[nH]c3ccccc13)C2: Compound NOT metabolized
- Cc1ccc(/C(=C\CN2CCCC2)c2ccccn2)cc1: Compound NOT metabolized

---

- condition_set: bacteroides thetaiotaomicron, 12 h, 2 µM
- Description: The drug is tested on Bacteroides thetaiotaomicron strain: VPI-5482 for biotransformation. The drug concentrations were measured before and after a 12-h incubation by liquid-chromatography-coupled mass spectrometry (LC–MS)
measured_property: Bacterial Biotransformation

- OC(CCN1CCCCC1)(c1ccccc1)C1CC2C=CC1C2 (centres undefined): Compound NOT metabolized
- CCCC(C)(COC(N)=O)COC(=O)NC(C)C (centres undefined): Compound metabolized
- C=CC[C@@H]1/C=C(\C)C[C@H](C)C[C@H](OC)[C@H]2O[C@@](O)(C(=O)C(=O)N3CCCC[C@H]3C(=O)O[C@H](/C(C)=C/[C@@H]3CC[C@@H](O)[C@H](OC)C3)[C@H](C)[C@@H](O)CC1=O)[C@H](C)C[C@@H]2OC.O: Compound NOT metabolized
- CC(Oc1c(Cl)cccc1Cl)C1=NCCN1 (centres undefined): Compound metabolized

---

- experiment_description: The drug is tested on Anaerotruncus colihominis strain: DSM17241 for biotransformation. The drug concentrations were measured before and after a 12-h incubation by liquid-chromatography-coupled mass spectrometry (LC–MS)
- condition_set: 2 µM
Non-standard residues stand in square brackets, D forms with d. Residues, ends and D or L forms follow the SMILES beside them. pGlu = O=C1CC[C@@H](C(=O)O)N1; Thz = O=C(O)[C@@H]1CSCN1
measured_property: Bacterial Biotransformation

• CC(C)c1nc(CN(C)C(=O)N[C@H](C(=O)N[C@@H](Cc2ccccc2)C[C@H](O)[C@H](Cc2ccccc2)NC(=O)OCc2cncs2)C(C)C)cs1 [RITONAVIR] = Compound NOT metabolized
• C[C@@H]1CC[C@H]2[C@@H](C)C(=O)O[C@@H]3O[C@@]4(C)CC[C@@H]1[C@]32OO4 [ARTEMISININ] = Compound metabolized
• CC(C)c1nc(N(C)S(C)(=O)=O)nc(-c2ccc(F)cc2)c1/C=C/[C@@H](O)C[C@@H](O)CC(=O)[O-].CC(C)c1nc(N(C)S(C)(=O)=O)nc(-c2ccc(F)cc2)c1/C=C/[C@@H](O)C[C@@H](O)CC(=O)[O-].[Ca+2] [ROSUVASTATIN CALCIUM] = Compound NOT metabolized
• CCC(=O)NCC[C@@H]1CCc2ccc3c(c21)CCO3 [RAMELTEON] = Compound NOT metabolized
• O=C(O)CCC(=O)O.O=C(O[C@H]1CN2CCC1CC2)N1CCc2ccccc2[C@@H]1c1ccccc1 [SOLIFENACIN SUCCINATE] = Compound NOT metabolized
• CC(Oc1c(Cl)cccc1Cl)C1=NCCN1 (stereo unspecified) [LOFEXIDINE] = Compound metabolized
• CCCC1O[C@@H]2C[C@H]3[C@@H]4CCC5=CC(=O)C=C[C@]5(C)[C@H]4[C@@H](O)C[C@]3(C)[C@]2(C(=O)CO)O1 (stereo partly specified) [BUDESONIDE] = Compound NOT metabolized
• O=C(Nc1ccccc1)OCC(CN1CCCCC1)OC(=O)Nc1ccccc1 (stereo unspecified) [DIPERODON] = Compound NOT metabolized
• CCN(C)C(=O)Oc1cccc([C@H](C)N(C)C)c1.O=C(O)C(O)C(O)C(=O)O [RIVASTIGMINE TARTRATE] = Compound NOT metabolized
• CCOC(=O)C1=C[C@]2(CC)CCCN3CCc4c(n1c1ccccc41)[C@@H]32 [VINPOCETINE] = Compound NOT metabolized
• CC(O)(CS(=O)(=O)c1ccc(F)cc1)C(=O)Nc1ccc(C#N)c(C(F)(F)F)c1 (stereo unspecified) [BICALUTAMIDE] = Compound NOT metabolized
• CC(C(=O)O)c1ccc2c(c1)Cc1cccnc1O2 (stereo unspecified) [PRANOPROFEN] = Compound metabolized
• O=C([O-])C[C@H](O)C[C@H](O)/C=C/c1c(C2CC2)nc2ccccc2c1-c1ccc(F)cc1.O=C([O-])C[C@H](O)C[C@H](O)/C=C/c1c(C2CC2)nc2ccccc2c1-c1ccc(F)cc1.[Ca+2] [PITAVASTATIN CALCIUM] = Compound NOT metabolized
• CCN(C(C)=O)c1cccc(-c2ccnc3c(C#N)cnn23)c1 [ZALEPLON] = Compound NOT metabolized
• N=C(N)NC(=O)Cc1c(Cl)cccc1Cl [GUANFACINE] = Compound NOT metabolized
• CC(=O)O[C@]1(C(C)=O)CC[C@H]2[C@@H]3C=C(C)C4=CC(=O)CC[C@]4(C)[C@H]3CC[C@@]21C [MEGESTROL ACETATE] = Compound NOT metabolized
• O=C1CC[C@@H](C(=O)N2CSC[C@H]2C(=O)O)N1 [PIDOTIMOD] ([pGlu]-[Thz]-OH) = Compound NOT metabolized
• CC12CC3CC(C)(C1)CC(N)(C3)C2 [MEMANTINE] = Compound NOT metabolized
• C[C@@H](CO)NC(=O)[C@@H]1C=C2c3cccc4[nH]cc(c34)C[C@H]2N(C)C1.O=C(O)/C=C\C(=O)O [ERGONOVINE MALEATE] = Compound metabolized
• C=CCc1ccccc1OCC(O)CNC(C)C (stereo unspecified) [ALPRENOLOL] = Compound NOT metabolized
• COc1ccc([C@@H]2Sc3ccccc3N(CCN(C)C)C(=O)[C@@H]2OC(C)=O)cc1 [DILTIAZEM] = Compound NOT metabolized
• NC(CO)(CO)CO.O=C(c1ccccc1)c1ccc2n1CCC2C(=O)O (stereo unspecified) [KETOROLAC TROMETHAMINE] = Compound NOT metabolized
• O=C(O)COCCN1CCN(C(c2ccccc2)c2ccc(Cl)cc2)CC1 (stereo unspecified) [CETIRIZINE] = Compound NOT metabolized
• CNCCC(Oc1ccc(C(F)(F)F)cc1)c1ccccc1 (stereo unspecified) [FLUOXETINE] = Compound NOT metabolized
• CCC(COC(=O)c1cc(OC)c(OC)c(OC)c1)(c1ccccc1)N(C)C.O=C(O)/C=C\C(=O)O (stereo unspecified) = Compound metabolized
• CC(C)NCC(O)COc1ccc(COCCOC(C)C)cc1.CC(C)NCC(O)COc1ccc(COCCOC(C)C)cc1.O=C(O)/C=C/C(=O)O (stereo unspecified) [BISOPROLOL FUMARATE] = Compound NOT metabolized
• O=C1NCC2(CCN(CCc3ccccc3)CC2)O1 [FENSPIRIDE] = Compound NOT metabolized
• CC(C)(C)NC[C@H](O)COc1nsnc1N1CCOCC1.O=C(O)/C=C\C(=O)O [TIMOLOL MALEATE] = Compound NOT metabolized
• CC(N)C12CC3CC(CC(C3)C1)C2 (stereo unspecified) [RIMANTADINE] = Compound NOT metabolized
• CC(C)(C#N)c1cc(Cn2cncn2)cc(C(C)(C)C#N)c1 [ANASTROZOLE] = Compound NOT metabolized
• CNNCc1ccc(C(=O)NC(C)C)cc1 [PROCARBAZINE] = Compound NOT metabolized
